- SYSTEM UNDER TEST: GSK3α (Homo sapiens, UniProt P49840)
- Sequence (P49840 whole entry): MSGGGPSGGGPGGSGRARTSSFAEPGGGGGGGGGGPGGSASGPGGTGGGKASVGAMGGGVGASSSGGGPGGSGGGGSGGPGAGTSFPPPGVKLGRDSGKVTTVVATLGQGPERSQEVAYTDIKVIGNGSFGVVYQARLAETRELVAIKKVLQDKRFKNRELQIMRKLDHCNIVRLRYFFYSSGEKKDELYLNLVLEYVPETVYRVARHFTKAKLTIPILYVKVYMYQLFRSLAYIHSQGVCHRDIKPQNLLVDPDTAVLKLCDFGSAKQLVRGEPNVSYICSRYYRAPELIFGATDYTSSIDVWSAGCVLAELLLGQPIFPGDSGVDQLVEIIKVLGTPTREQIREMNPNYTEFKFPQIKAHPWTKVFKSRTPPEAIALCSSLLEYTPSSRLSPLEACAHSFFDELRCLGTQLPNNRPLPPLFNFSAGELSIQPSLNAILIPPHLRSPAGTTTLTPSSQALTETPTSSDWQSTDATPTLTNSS
- EXPERIMENT NOTES: GSK 3α enzyme inhibition (FRET), Method 1
- Format: biochemical
- DETAILS: Table 4a1
VALUE TYPE: IC50 (µM)
Entry rule: numbers only, all in µM.

MOLECULE	UNIT TAG	IC50
COc1ccc(-n2nc(C(C)(C)C)cc2NC(=O)Nc2ccc(Oc3cc(Nc4cc(OC)cc(C(=O)NCCN5CCOCC5)c4)ncn3)c(C)c2C)cc1 [Example 91]	µM	3.52
COc1ccc(-n2nc(C(C)C)cc2NC(=O)Nc2ccc(Oc3ccnc(Nc4cc(Cl)cc(C(=O)NCCN5CCOCC5)c4)n3)c3ccccc23)cc1 [Example 61]	µM	6.94
COc1ccc(-n2nc(C3CCCO3)cc2NC(=O)Nc2ccc(Oc3ccnc(Nc4cc(OC)cc(C(=O)NCCN5CCOCC5)c4)n3)c3ccccc23)cc1 (stereo not drawn) [Example 58]	µM	8.47
COc1cc(Nc2nccc(Oc3ccc(NC(=O)Nc4cc(C(C)(C)C)nn4-c4ccc(C)cc4)c4ccccc34)n2)cc(C(=O)NCCO)c1 [Example 64]	µM	0.122

Next item in the queue.
Ask: What measured IC50 goes with Cc1ccc(-n2nc(C(C)(C)C)cc2NC(=O)Nc2ccc(Oc3ccnc(Nc4cc(C)cc(C(N)=O)c4)n3)c3ccccc23)cc1 [Example 40] ?
Reply: 1.34
